Percent Effect values for the molecules below.
- Measured on: Aspartate--tRNA(Asp/Asn) ligase (Mycobacterium tuberculosis (strain ATCC 25618 / H37Rv))
- Method notes: Assay for Asp RNA synthetase-1 from Mycobacterium tuberculosis
- Assay type: functional
- Parameters: scale not given: in the data most compounds retested in dose-response had high values
- Settings: 30 µM
The answer is to be given in %; state only the numeric part.

# annotated cases, reported Percent Effect shown
INSERT INTO assay_data (molecule, value_measured) VALUES
  ('CNc1cccc(C2CCCN(C(=O)c3ccncc3)C2)n1 (stereo not given)', -6.06),
  ('CC(=O)N1CCn2c(C(=O)N(C)C)cnc2C1', -2.78),
  ('Cn1ccnc1CN1CCN(c2ccc(C#N)cc2F)CC1', -2.39),
  ('CO[C@@H]1CCN(Cc2cnn(C)c2)[C@@H]2CN(Cc3ccco3)C[C@@H]21', -4.07);

Now consider the entry below.
Provide one value: measured Percent Effect of O=C(NCC1CCOC1)N1CCN(Cc2ccc3c(c2)CCO3)CC1 (stereo not given) -0.0562
